TARGET OF ASSAY: MspA-PBA (phenylboronic acid modified hetero-octameric (N90C)1(M2)7 MspA) (Mycolicibacterium smegmatis, UniProt A0QR29, D117C/D118N/D120N/D145R/D161R/E166K)
Construct: H6 (hexa-histidine) (C); 3-(maleimide) phenylboronic acid (MPBA) adduct on the thiol of Cys90; made in house; host or cells: E. coli BL21 (DE3) pLysS, co-expression from pETDuet-1
Type: binding, Mycobacterium smegmatis
MEASUREMENT PARAMETERS: NMP 100 μM in cis, +200 mV, three independent measurements
METRIC: 1/τon (s⁻¹)

COMPOUND: Nc1ncnc2c1ncn2[C@@H]1O[C@H](COP(=O)(O)O)[C@@H](O)[C@H]1O [AMP, adenosine-5′-monophosphate]
METRIC: 1/τon
EXPERIMENTAL VALUE: 0.54
--
COMPOUND: O=c1ccn([C@@H]2O[C@H](COP(=O)(O)O)[C@@H](O)[C@H]2O)c(=O)[nH]1 [UMP, uridine-5′-monophosphate]
METRIC: 1/τon
EXPERIMENTAL VALUE: 0.28
--
COMPOUND: Nc1ccn([C@@H]2O[C@H](COP(=O)(O)O)[C@@H](O)[C@H]2O)c(=O)n1 [CMP, Cytidine-5′-monophosphate]
METRIC: 1/τon
EXPERIMENTAL VALUE: 0.30
--
COMPOUND: Nc1nc2c(ncn2[C@@H]2O[C@H](COP(=O)(O)O)[C@@H](O)[C@H]2O)c(=O)[nH]1 [GMP, guanosine-5′-monophosphate]
METRIC: 1/τon
EXPERIMENTAL VALUE: 0.02

----------
TARGET OF ASSAY: MspA-PBA (phenylboronic acid modified hetero-octameric (N90C)1(M2)7 MspA) (Mycolicibacterium smegmatis, UniProt A0QR29, D117C/D118N/D120N/D145R/D161R/E166K)
Construct: H6 (hexa-histidine) (C); 3-(maleimide) phenylboronic acid (MPBA) adduct on the thiol of Cys90; made in house; host or cells: E. coli BL21 (DE3) pLysS, co-expression from pETDuet-1
Format: binding, Mycobacterium smegmatis
MEASUREMENT PARAMETERS: NMP 300 μM in cis, +200 mV, N=3
METRIC: % Ib (percentage blockage)

MOLECULE: Nc1nc2c(ncn2[C@@H]2O[C@H](COP(=O)(O)O)[C@@H](O)[C@H]2O)c(=O)[nH]1 [GMP, guanosine-5′-monophosphate]
EXPERIMENTAL VALUE: 11.8±0.2%
--
MOLECULE: Nc1ncnc2c1ncn2[C@@H]1O[C@H](COP(=O)(O)O)[C@@H](O)[C@H]1O [AMP, adenosine-5′-monophosphate]
EXPERIMENTAL VALUE: 10.89±0.14%
--
MOLECULE: O=c1ccn([C@@H]2O[C@H](COP(=O)(O)O)[C@@H](O)[C@H]2O)c(=O)[nH]1 [UMP, uridine-5′-monophosphate]
EXPERIMENTAL VALUE: 8.64±0.09%
--
MOLECULE: Nc1ccn([C@@H]2O[C@H](COP(=O)(O)O)[C@@H](O)[C@H]2O)c(=O)n1 [CMP, Cytidine-5′-monophosphate]
EXPERIMENTAL VALUE: 7.1±0.2%
--
MOLECULE: O=c1[nH]cc([C@@H]2O[C@H](COP(=O)(O)O)[C@@H](O)[C@H]2O)c(=O)[nH]1 [Ψ, Pseudouridine-5′-monophosphate]
EXPERIMENTAL VALUE: 10.2 ± 0.2%

Reference source: patent US20240418701A1
